Exercise: for every item that follows, state its recorded protein stability index.
B1: MLH1 (parent)
chain: YAHQMVRTDSREQKLDAFLQPLSK

# Variants of: B1
# assay-procedure: protein stability index of a GFP-peptide fusion (GPS, HEK-293T) (PSI 1-6); higher = more stable;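 further: lentivirally expressed fusions sorted by FACS into six bins by GFP to DsRed ratio, PSI derived from sequencing read proportions per bin multiplied by bin number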
# measurement-conditions: c terminus: a fixed tail appended
Give bare numbers.

Illustrative cases are given below, each with its answer.
In [3]: df
Out[3]:
   variant_key  recorded_value
0         Q13R            2.78
1         P21S               3
2          D9E            2.95
3          Q4K               2
4         K24W            2.16
5         P21Q             2.7

For each of the variants below, state protein stability index.
1. P21C
2. A17Q
3. L15E
4. A2L
5. M5H
6. R7C
7. A17I

[2.2, 2.06, 3.83, 2.84, 2.53, 1.59, 2.69]
